We begin with a simple list: items and their reported TGI.
test system: RPMI-8226 leukemia; experiment: NCI tumour cell line growth inhibition, 48 h
Field: numeric (µM). Do not append units.

`CC(=O)ON(C(C)=O)c1ccc(-c2nc3ccccc3s2)cc1` on RPMI-8226 leukemia gives TGI = 55.4

Entry `COc1cc2c(cc1O)CC[C@@H]1[C@@H]2CC[C@]2(C)[C@@H](NCCN(C)C)CC[C@@H]12` ; assay system RPMI-8226 leukemia; TGI recorded at 0.665

Please examine the following record next.
# TGI measured on RPMI-8226 leukemia for item `Nc1ccc2c(c1)C(=O)C(=O)c1c-2nc2ccccn12` = 4.71

* * *

test system: RPMI-8226 leukemia; assay: NCI tumour cell line growth inhibition, 48 h
outcome measure: TGI

Use these answered entries as a reference point.
# value of TGI, RPMI-8226 leukemia, item `O=C(O)c1cc2ccccc2c(N=Nc2ccccc2)c1O` = > 100 µM

Observed TGI, RPMI-8226 leukemia, `O=C1OC[C@@H]2[C@@H](O)CCCCCN12` : > 100 µM

Form: item OC1[C@H]([C@H]2CCCC[C@@H]2O)CCC[C@@H]1[C@@H]1CCCC[C@H]1O (some centres undefined) ; test system RPMI-8226 leukemia; TGI: > 100 µM

Turning now to a further record.
Record `CC(=O)Nc1ccc(Nc2cc(=O)[nH]c(=O)[nH]2)cc1` / RPMI-8226 leukemia, TGI recorded as > 100 µM
